Assay: Components of the Cytosolic LPS Sensing Pathway: Gene Identification via Genome-wide siRNA Screen
Conditions: RAW264.7 macrophages, IL-1a HTRF, actives lie on both sides, screened at 100 nM (by protocol), cells primed 5 h with Pam3CSK4 first
Among all 53,000 sequences or so, about 3,700 (7%) were called active.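 The calls were made as follows: active = gene knockdowns whose robust z-score for IL-1 alpha signal is at least 2 or at most -2, so actives lie on both sides; inactive = the rest.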 The sample as a whole holds a higher share of actives than the screen did.
Answer with one of the outcomes given here: yes (active), no (inactive)

{"columns": ["BIOPOLYMER SEQUENCE", "CAT"],
 "data": [
  ["GGAGAAUCCUGUUUUUUGUTT against Elp4", "no"],
  ["CGAAAACUUCAUAGCUACATT against Hmg20a", "no"],
  ["GCACGUCCUCGAUCUCUGUTT against Extl3", "no"],
  ["CCAUCCUCAACAAGAUCGATT against Rab4b", "yes"],
  ["CCAAAUGACUUUGGUCCUATT against Vax2", "no"],
  ["GGUACGGUAUGGAGAUCGGTT against Atpaf2", "no"]
]}

Request: Call for entry CGUUCAUGUUGUAAGUAUCTT against Olfr1196 :
Result: no

Request: Moving on to the next sequence: CGGUAGCCAUAUUAAUAUCTT against Spink2
Result: no

====

Experiment: Components of the Cytosolic LPS Sensing Pathway: Gene Identification via Genome-wide siRNA Screen
Settings: RAW264.7 macrophages, IL-1a HTRF, actives lie on both sides, screened at 100 nM (by protocol), cells primed 5 h with Pam3CSK4 first
Among all 53,000 sequences or so, about 3,700 (7%) were called active. This excerpt belongs to a sample that is enriched for actives.
ASSAY ENDPOINT: z-score
The response must contain the number and no unit.

Some entries whose results are on file:
{"columns": ["BIOPOLYMER SEQUENCE", "z-score"],
 "data": [
  ["GGACUAAUCCCAUUUUCUUTT against Zfp422", -0.292],
  ["GCGGGAGUACUACGUCAAUTT against Reps2", -2.07],
  ["GGAAGAAGAUAAAGAGAAATT against Gtf2a1", 1.09],
  ["GGAUUACAGGCAUUUGGUUTT against Hmgn1", 3.01],
  ["GGCAGAAUAUGAGUUUGAUTT against Camk1d", -0.161],
  ["GGUGUUUUUGUCCAGGUCATT against Kcnk3", -0.618]
]}

// moving on: another record for z-score
Request: Record request: z-score value, item GGAUCAAAGGAAGAAGGGCTT against Zbtb24
Result: -0.00585

====

Experiment: Components of the Cytosolic LPS Sensing Pathway: Gene Identification via Genome-wide siRNA Screen
Details: RAW264.7 macrophages, IL-1a HTRF, actives lie on both sides, screened at 100 nM (by protocol), cells primed 5 h with Pam3CSK4 first
In all, about 53,000 sequences went through this assay and about 3,700 (7%) were called active.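 The calls were made as follows: active = gene knockdowns whose robust z-score for IL-1 alpha signal is at least 2 or at most -2, so actives lie on both sides; inactive = the rest.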 Shown is part of a subset that was picked to be rich in actives.
Answer with one of the outcomes given here: active, inactive

# example entries with known answers
{"columns": ["BIOPOLYMER SEQUENCE", "CAT"],
 "data": [
  ["GGUAGAGCUGCACUUUGGATT against Hddc3", "inactive"],
  ["GGCAGACGGUAAUAAACAUTT against Ralgapb", "inactive"],
  ["GGUAGAAGCAGAGUUACCATT against Spata32", "inactive"],
  ["CGAUCGAAAUCAAGUCGAUTT against Septin9", "inactive"],
  ["GCCUCAGCAUUACCACUAUTT against Pof1b", "inactive"]
]}

Request: Call for entry GCAGACUAAAAUCACGACATT against Ednra :
Result: active

====

Experiment: Components of the Cytosolic LPS Sensing Pathway: Gene Identification via Genome-wide siRNA Screen;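 also: robust z of the log signal after scaling to non-targeting control siRNA wells of the plate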
Settings: RAW264.7 macrophages, IL-1a HTRF, actives lie on both sides, screened at 100 nM (by protocol), cells primed 5 h with Pam3CSK4 first
In all, about 53,000 sequences went through this assay and about 3,700 (7%) were called active.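 The calls were made as follows: active = gene knockdowns whose robust z-score for IL-1 alpha signal is at least 2 or at most -2, so actives lie on both sides; inactive = the rest.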 This excerpt belongs to a sample that is enriched for actives.
Answer with one of the outcomes given here: active, inactive

{"columns": ["BIOPOLYMER SEQUENCE", "CAT"],
 "data": [
  ["GGAAACAGAUUUAAAGUGATT against Efcc1", "inactive"],
  ["GGAGCUUAUCAACUACUAUTT against Cltc", "inactive"],
  ["CCAUGAUUAAGGGUCUCUATT against Ldha", "inactive"],
  ["GGAAACCGUUCUCAUUAAATT against Mrpl30", "inactive"],
  ["GGAUACAUUAAGGUGCAAGTT against Aldh1a7", "inactive"],
  ["GGUAACAACUUUUAAGCCUTT against Prps2", "inactive"],
  ["GGACAUUCUGCUACACAAGTT against Bsx", "active"],
  ["CCAGUACUCGUUUCACUUATT against Mrpl15", "inactive"],
  ["CGGUUACAGGUGAAAUCCUTT against Sval1", "inactive"],
  ["GGUGGAGAAACAAAUUAGUTT against Rab9", "inactive"]
]}

Request: Call for entry GGACUACCACAGCCUCUUCTT against Pxn :
Result: inactive

Request: Moving on to the next sequence: GGAGUCCUAGAACACACAGTT against Snap29
Result: inactive

Request: Moving on to the next sequence: GGUUUUCUUAAAAUAGGAGTT against Tat
Result: inactive

====

Assay: Components of the Cytosolic LPS Sensing Pathway: Gene Identification via Genome-wide siRNA Screen;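 also: robust z of the log signal after scaling to non-targeting control siRNA wells of the plate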
Settings: RAW264.7 macrophages, IL-1a HTRF, actives lie on both sides, screened at 100 nM (by protocol), cells primed 5 h with Pam3CSK4 first
Experimental: Non-canonical inflammasome activation by cytosolic LPS is a critical component of the host response to Gram-negative bacterial infection, however we lack a comprehensive understanding of the cellular processes that control this pathway. […] Lipofectamine RNAiMAX Transfection Reagent ([…]; Invitrogen) was added in […] serum-free, antibiotic-free media to plate wells using a Thermo Scientific Matrix WellMate and Microplate Stacker. […] The plates were read on an EnVision plate reader (PerkinElmer). […]
About 3,700 (7%) of roughly 53,000 sequences were called active.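 Rule for the calls: active = gene knockdowns whose robust z-score for IL-1 alpha signal is at least 2 or at most -2, so actives lie on both sides; inactive = the rest.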 This is one part of a sample in which actives are shown more often than they occur.
Answer with one of the outcomes given here: 1 (yes) = active, 0 (no) = inactive

# example entries with known answers
{"columns": ["BIOPOLYMER SEQUENCE", "CAT"],
 "data": [
  ["GGAAAUUCGUGCAUGAAGATT against Sgsm2", "0 (no)"],
  ["GCCCUGGAUCAUUGAGUGATT against Atp2b1", "0 (no)"],
  ["CCACAUAUAUCAACAAGCUTT against Olfr916", "0 (no)"],
  ["GCCUAUGCAGCUCUCUCUGTT against Acat3", "0 (no)"],
  ["GGCUAAGGAAUGUCAAUAATT against Dnajc5g", "0 (no)"],
  ["GGGUUUUCUCAUUGUCUUUTT against Rce1", "0 (no)"],
  ["GCUUUCGCCAAUAAAAAAGTT against Slc13a2", "0 (no)"],
  ["GGCUCAUCCCAAUGCUAUATT against Sdc3", "0 (no)"],
  ["GGGUCAGAUGGUACCAAGATT against Adamts18", "0 (no)"],
  ["GGAAGAACUUCAGAAUGCATT against Slirp", "0 (no)"]
]}

# next sequence below
Request: Call for entry CCUUCAAGUACUUUCUCCGTT against Dcakd :
Result: 0 (no)

====

Assay: Components of the Cytosolic LPS Sensing Pathway: Gene Identification via Genome-wide siRNA Screen;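 also: robust z of the log signal after scaling to non-targeting control siRNA wells of the plate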
Conditions: RAW264.7 macrophages, IL-1a HTRF, actives lie on both sides, screened at 100 nM (by protocol), cells primed 5 h with Pam3CSK4 first
About 3,700 (7%) of roughly 53,000 sequences were called active. This is one part of a sample in which actives are shown more often than they occur.
ASSAY ENDPOINT: z-score
The response must contain the number and no unit.

{"columns": ["BIOPOLYMER SEQUENCE", "z-score"],
 "data": [
  ["CGAAAACAAUUACGUCUAUTT against Rfwd3", 1.15],
  ["GGGCUUCACCCUCAUACAATT against Pirt", 2.26],
  ["GCCCUUCAAAAGGAGCAGUTT against Cap1", 1.86],
  ["CCAUUUGACAAGACUGCCATT against Ppp6r1", 0.921],
  ["GGGAUAUGUGAAGCCUCAGTT against Mospd3", -1.21],
  ["AAGAAUACUCAGAUCAGUUTT against Magee2", 0.111]
]}

// moving on: another record for z-score
Request: Record request: z-score value, item CGACAGACAUCGCUAUAAUTT against Gm11437
Result: -0.296

====

Experiment: Components of the Cytosolic LPS Sensing Pathway: Gene Identification via Genome-wide siRNA Screen;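 also: robust z of the log signal after scaling to non-targeting control siRNA wells of the plate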
Conditions: RAW264.7 macrophages, IL-1a HTRF, actives lie on both sides, screened at 100 nM (by protocol), cells primed 5 h with Pam3CSK4 first
The whole screen tested about 53,000 sequences, of which about 3,700 (7%) were called active.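 Rule for the calls: active = gene knockdowns whose robust z-score for IL-1 alpha signal is at least 2 or at most -2, so actives lie on both sides; inactive = the rest.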 The full list was thinned out, with actives kept by preference.
Answer with one of the outcomes given here: Y (active), N (inactive)

{"columns": ["BIOPOLYMER SEQUENCE", "CAT"],
 "data": [
  ["GCCCUUUUACGGCAACAGATT against C2cd5", "N"]
]}

Request: Call for entry CCCAUGCUUAUUACCGAGATT against Rab37 :
Result: N

Request: Moving on to the next sequence: CCGUUUUUGUGGUUCAGUGTT against Plxdc1
Result: N

Request: Moving on to the next sequence: GGUUUACUGUGAAAAAAGATT against Morc2b
Result: N

Request: Moving on to the next sequence: GGGUAGUUAUACAAACUAATT against Snapc5
Result: N

Request: Moving on to the next sequence: GGAUUUUCAAUUCAUACCCTT against Psmb1
Result: N

Request: Moving on to the next sequence: GGAAGAUGAUUAUGAAGAUTT against Apc
Result: N

Request: Moving on to the next sequence: GGAUAAGACCAUCAGAUUATT against Wdr31
Result: N

Request: Moving on to the next sequence: CCUACAGAAUAGAAAAUUCTT against Elmod2
Result: N

Request: Moving on to the next sequence: GAUAAAAUCGGACUGAUAATT against Olfr1079
Result: N

Request: Moving on to the next sequence: GGUUAAAAUUGGCUAAAUGTT against Sertm1
Result: N
